Taken from ChEMBL document CHEMBL1152247.

# TESTED_ON: Mitogen-activated protein kinase 1 (Homo sapiens, UniProt P28482)
# Sequence (P28482 whole entry): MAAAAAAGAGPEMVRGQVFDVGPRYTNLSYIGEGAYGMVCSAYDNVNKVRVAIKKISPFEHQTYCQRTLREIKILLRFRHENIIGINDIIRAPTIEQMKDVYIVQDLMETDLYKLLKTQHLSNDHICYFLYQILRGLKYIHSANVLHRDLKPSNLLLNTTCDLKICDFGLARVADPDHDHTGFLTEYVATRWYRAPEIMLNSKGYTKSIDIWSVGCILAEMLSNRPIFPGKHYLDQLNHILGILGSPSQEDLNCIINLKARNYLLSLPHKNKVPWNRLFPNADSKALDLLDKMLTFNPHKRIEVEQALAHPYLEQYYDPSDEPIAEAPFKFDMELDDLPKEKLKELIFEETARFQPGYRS
# PROTOCOL_DETAILS: Inhibition of recombinant ERK2
pIC50: −log10 of the molar value.
REPORTED_METRIC: pIC50

Examples with answers:
[[record]]
molecular_string = "COc1ccccc1-c1c[nH]nc1-c1ccc(OCc2ccccc2F)cc1O"
recorded_measurement = 4.56

[[record]]
molecular_string = "O=C(Nc1nc(NC(=O)c2ccco2)n(-c2ccccc2)n1)c1ccccc1"
recorded_measurement = 4.74

[[record]]
molecular_string = "O=C1/C(=C/c2ccc(O)cc2)SC(=S)N1Cc1ccccc1"
recorded_measurement = 5.26

[[record]]
molecular_string = "O=C(Nc1nc(NC(=O)c2ccccc2)n(-c2ccccc2)n1)c1ccccc1"
recorded_measurement = 5.08


a: O=C(/C=C/c1ccccc1)Nc1nc(NC(=O)c2ccccc2)nn1-c1ccccc1
b: COc1cc(/C=C2\SC(=S)N(Cc3ccccc3)C2=O)ccc1O
Prompt: Which has the smaller recorded pIC50, a or b ? Returns: label corresponding to the selected item.
Response: a
